Values were extracted from PubChem BioAssay (NCI).

tested on: MDA-MB-435
Respond only with the outcome that fits, drawn from y (active), n (inactive)

Record excerpt, results attached:
INSERT INTO measurements (compound, answer_label) VALUES
  ('Nc1c(C(=O)Nc2cccc(Cl)c2Cl)sc2nc3c(cc12)C(=O)CCC3', 'y'),
  ('COc1cc(NC(=O)C2=C(N3CCOCC3)/C(=C/c3ccc(Cl)cc3)CC2)cc(OC)c1OC', 'n'),
  ('Cc1cc(Nc2cc(N)ncn2)c(=O)n2c1C(=O)NC21CCCCC1', 'n'),
  ('CC(O)c1cc(C(=O)N[C@@H](C)Cn2ccc(-c3ccc(C#N)c(Cl)c3)n2)n[nH]1 (some centres undefined)', 'n'),
  ('O=C(CCc1ccc(O)cc1)N/N=C/c1cc(Br)ccc1O', 'n');

(Q) Which outcome was assigned to `C/C(=N\NC(=S)N(C)C)c1ccccn1` in this test?
(A) y

(Q) In this assay, the call recorded for `Cc1cccc(Cc2cnc(NC(=O)CCc3ccc(C)o3)s2)c1` was what?
(A) y

(Q) # outcome recorded in this test, key = `COc1cc2c3c(n(C)c(=O)c2cc1OC)-c1cc2c(cc1/C3=C\CCNCCCN)OCO2`
(A) n

(Q) Could you kindly confirm the outcome this assay logged for `COc1c(B(O)O)cc(F)cc1-c1nc2ccc3[nH]ncc3c2c2c1CCCC2` ?
(A) n

----------
test system: HOP-62 NSCLC; assay: NCI tumour cell line growth inhibition, 48 h
Attribute: TGI

Solved cases (5 shown):
INSERT INTO results (compound, reported_endpoint, obs_value) VALUES
  ('Oc1cc(Br)cc2cc(Cl)cnc12', 'TGI', '> 60.4 µM'),
  ('O=C(O)CCC(NC(=O)c1ccc(Nc2nc3cc(C(F)(F)F)ccc3nc2C(=O)O)cc1)C(=O)O (configuration not stated)', 'TGI', '> 100 µM'),
  ('CC1=NN(c2nc(N)nc(CF)n2)C(C)(C)C1', 'TGI', '> 100 µM'),
  ('CN(Cc1cc(Cl)c(Cl)cc1NC(=O)CN)[C@H]1CCCC[C@@H]1N1CCCC1', 'TGI', '> 100 µM'),
  ('CCN(c1cc(C#CCN2CCOCC2)cc(C(=O)NCc2c(C)cc(C)[nH]c2=O)c1C)C1CCC(N(C)CCOC)CC1 (configuration not stated)', 'TGI', '> 100 µM');

Kindly review the next compound as well.
Tested system HOP-62 NSCLC; TGI recorded for `C=C1CN(C2=NCCO2)C1` was > 100 µM

----------
system: NCI-H23 lung; experiment: NCI tumour cell line growth inhibition, 48 h
Recorded TGI, one value per entry.
Numbers only here, please. The scale is µM.

Recorded results for 2 molecules are shown here.
INSERT INTO results (molecule, reported_endpoint, obs_value) VALUES
  ('CCCCCCCCCCCCCC(=O)N(CCCCCCCCC)CC(O)C(O)C(OC1OC(CO)C(O)C(O)C1O)C(O)CO (stereo not given)', 'TGI', 41.5),
  ('COC1OC2=CCC3C(=O)NC(=O)C3C2[C@H](OCc2ccccc2)C1OCc1ccccc1 (stereo not given in full)', 'TGI', 4.7);

// moving on: another record for TGI
Query `O=C(c1ccccc1)c1c(C(F)(F)F)n([O-])c2ccc(C(F)(F)F)cc2[n+]1=O` yields TGI of 1.13

----------
tested on: K-562 leukemia; experiment: NCI tumour cell line growth inhibition, 48 h; in the data active = GI50 below about 0.43 µM; inactive = the rest
*1 amine or outer side, *2 acyl side, *3 side chain or, on linkers, in order; H or OH if unused. Where a SMILES comes first, the peptide text is derived from it. Bridges are numbered along the chain shown (N, C = ends). Roman numbers before positions name the chains, in order. [ ]: non-standard residue; d: D form. Actinocin(9to1) = Cc1c2oc3c(C)ccc(C(=O)[*:1])c3nc-2c(C(=O)[*:2])c(N)c1=O; NMeF = CN[CH](Cc1ccccc1)C(=O)O; Sar = CNCC(=O)O
The reply should be one of these categories: class 1 (active), class 0 (inactive)

INSERT INTO assay_data (molecule, answer_label) VALUES
  ('Cc1c2oc3c(C)ccc(C(=O)NC4C(=O)NC(C(C)C)C(=O)N5CCCC5C(=O)N(C)CC(=O)N(C)C(Cc5ccccc5)C(=O)OC4C)c3nc-2c(C(=O)NC2C(=O)NC(C(C)C)C(=O)N3CCCC3C(=O)N(C)CC(=O)N(C)C(Cc3ccccc3)C(=O)OC2C)c(N)c1=O (centres undefined) (I: TVP[Sar][NMeF] / II: TVP[Sar][NMeF]; ester I:1-I:C, II:1-II:C; linker I:N-II:N via Actinocin(9to1); configuration not given here)', 'class 1'),
  ('O=C(CCCCC(=O)N/N=C\c1ccccc1O)N/N=C\c1ccccc1O', 'class 0'),
  ('O=C1C(Cl)=C(Nc2cccc(O)c2)C(=O)N1Cc1ccc(Cl)cc1Cl', 'class 0');

Now examine the next entry.
(Q) Could you kindly confirm the outcome this assay logged for `Cc1cc(I)cc(CN(C)CCCN2CCN(C)CC2)c1O` ?
(A) class 0

----------
system: UACC-62 melanoma; test: NCI tumour cell line growth inhibition, 48 h
reported_endpoint: TGI (µM)
Please reply with the bare figure in µM and do not write the unit itself.

INSERT INTO results (compound, system_tested, obs_value) VALUES
  ('CC(C)(C)[Si](C)(C)OCC1OC(n2cnc3c(=O)[nH]c(N)nc32)C(O[Si](C)(C)C(C)(C)C)C1O[Si](C)(C)C(C)(C)C (centres undefined)', 'UACC-62 melanoma', 4.3),
  ('c1ccc(CN2CCN3CCN(CC2)CCN(Cc2ccccc2)CC3)cc1', 'UACC-62 melanoma', 14.9);

For `CC#Cc1nc(Nc2cc(C)[nH]n2)c2ccccc2n1` the compound record lists TGI as 11.8

----------
system: A549 NSCLC; assay: NCI tumour cell line growth inhibition, 48 h
reported_endpoint: TGI

INSERT INTO assay_data (compound, obs_value) VALUES
  ('Nc1ncc(-c2cccc(S(N)(=O)=O)c2)c2scc(-c3ccc(F)c(Cl)c3)c12', '> 25 µM');

# TGI (compound: CC(=O)OC1COC(Nc2nc(N)n(C)c(=O)c2N=O)C(OC(C)=O)C1OC(C)=O (stereo unspecified) ) is > 10 µM

Lab note: `NNC(=O)C(=O)N/N=C(\CCC(=O)Nc1ccc(Cl)cc1)Cc1nc2ccccc2s1` gave TGI of > 100 µM

Per the records, this compound ( C=CCC(C(=O)Nc1cccc2[nH]cnc12)C(=O)OCC (stereo unspecified) ) has TGI equal to > 100 µM

Recorded result, OC1C[C@H](c2ccccc2)C2(C(O)c3ccccc3C2O)[C@@H](c2ccccc2)C1 (stereo partly specified) , TGI: > 100 µM

According to the records, this compound CC(=O)Nc1ccccc1NC1CC(C)N(c2ccccc2)N1C(C)=O (stereo unspecified) displays TGI of > 10 µM

----------
test system: HS 578T breast; assay: NCI tumour cell line growth inhibition, 48 h
Measured log10 of TGI, listed per entry for reference.
On a log10 scale: recorded TGI, unit µM.

Sure, the documented log10 of TGI for `CNCCN=c1ccc2c3c1c(O)c1c(O)ccc(=O)c1c3[nH]n2CCNCCO` is 0.15

log10 of TGI in this record for `Cc1cc(S(=O)(=O)/N=C(/NN)NNc2cccc(C(F)(F)F)n2)c(S)cc1Cl` : 1.74

Measured log10 of TGI of `CN1CCN(C2=CC(=O)c3c(O)ccc(O)c3C2=O)CC1` : 0.61

Notebook: CC(C)(C)[Si](C)(C)OCC1OC(n2cnc3c(=O)[nH]c(N)nc32)C(O[Si](C)(C)C(C)(C)C)C1O[Si](C)(C)C(C)(C)C (stereo unspecified) , log10 of TGI read as 0.88

C=CC(COC(c1ccccc1)(c1ccccc1)c1ccccc1)N(CC)CC (stereo unspecified) yielded log10 of TGI of 0.99

# compound `Oc1cc(Br)cc2cc(Cl)cnc12` ; its log10 of TGI = 1.08

The compound listed as `O=C1C(Cl)=C(Nc2cccc(O)c2)C(=O)N1Cc1ccc(Cl)cc1Cl` has a reported log10 of TGI of 1.34

----------
tested on: NCI-H23 lung; assay: NCI tumour cell line growth inhibition, 48 h
reported_endpoint: TGI

Example cases with answers are listed next.
INSERT INTO measurements (compound, reported_endpoint, obs_value) VALUES
  ('CCC(NC1=NCCO1)c1cccs1 (stereo not drawn)', 'TGI', '31.6 µM'),
  ('CCOC(=O)c1c(-c2cccc3ccccc23)c(C#N)c(=S)n(C2OC(COC(C)=O)C(OC(C)=O)C(OC(C)=O)C2OC(C)=O)c1C (stereo not drawn)', 'TGI', '> 100 µM'),
  ('COc1ccc(-c2nn(-c3ccc(NC(=O)Nc4ccc(Cl)c(C(F)(F)F)c4)cc3)cc2-c2ccncc2)cc1Cl', 'TGI', '8.17 µM'),
  ('CC1=NN(c2nc(N)nc(/C=C\c3ccc([N+](=O)[O-])s3)n2)C(C)(C)C1', 'TGI', '> 100 µM'),
  ('COc1ccc(Cn2cc3c(c2-c2cc(OC)c(OC)c(OC)c2)CCc2cnoc2-3)cc1', 'TGI', '> 100 µM');

Please look at the following compound next.
TGI value, target or system NCI-H23 lung, for `CCCCNC(=O)/N=C/c1c(O)c2ccccc2oc1=O` : > 100 µM
